Source: PubChem BioAssay

test: COS7 lysate on small-molecule microarray, probe aHis, 635 nm (AID 1123); details: COS7 cell lysate, fluorescence, higher = more signal;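 further: z-score combines 667nm fluorescence intensity with signal-to-noise per printed compound spot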
test.readout: composite z-score

> print(dat)
                                   compound  reported
1  C=C(C(=O)CC[C@H](OC(=O)c1cccnc1)c1cccc(OCCO)c1)C(C)C    0.0609
2  CC(=O)n1cc(C(O)C2C=CC3C(=O)N(Cc4ccccc4)C(=O)C3N2n2cnnc2)c2ccccc21 (stereo not drawn)     0.983
3  CN(C)CCCNC(=O)[C@@H]1c2ccccc2C(=O)N(Cc2ccc(OC(F)(F)F)cc2)[C@H]1c1ccc(CO)cc1       1.4
4  C=CC[C@@]12N=C(c3ccc(OCCCO)cc3)O[C@@H]1c1ccccc1N(CCS(=O)(=O)c1ccccc1)C2=O      1.78
5  COc1cc(CO)cc(I)c1O[C@H]1C=C(C(=O)NCCO)C[C@@H](N(Cc2ccc(F)cc2)C(=O)C2CCCO2)[C@@H]1O (stereo partly drawn)    -0.248
6  CCOC(=O)C1=CC[C@@H](c2ccccc2)N(S(=O)(=O)c2ccc(C)cc2)C1     0.522
7  CCOC(=O)C[C@H]1[C@H](OC(=O)c2ccc(C(=O)c3ccccc3)cc2)[C@@H](NC(=O)c2ccc3ccccc3c2)c2cc(OCCCO)ccc2N1C(=O)c1ccccc1      1.26
8  O=C(CS)NCCCCCCNC(=O)[C@H]1C[C@H]2C(=O)N[C@@H](Cc3ccccc3)C(=O)N2[C@H]1c1cccc(OCCO)c1      2.21
